Below: a set of entries, each annotated with reported Mean Peak Serum [IFN] ± SD.
test: Interferon oral delivery, serum IFN by immunoassay; assay type: in vivo, Sprague-Dawley rats; settings: rats, delivery agent compound 200 mg/kg, IFN 1 mg/kg, 1 ml/kg
# value in ng/mL; strip the unit string

[[record]]
molecule = "O=C(O)c1ccc(COc2ccc(O)cc2)cc1"
numeric_result = 3.4451

[[record]]
molecule = "O=C(O)CCCCCCOc1ccccc1O [Compound 6, (2-hydroxyphenyl)-7-oxyheptanoic acid]"
numeric_result = 0.5696


[ask] Look up Mean Peak Serum [IFN] ± SD: O=C(O)CCCCCCCOc1ccccc1C(=O)O
[reply] 0

[ask] Consider next the molecule O=C(O)CCCCCOc1ccccc1 in the same way.
[reply] 6.0324

[ask] Consider next the molecule CC(=O)c1ccccc1OCCCCCCCC(=O)O in the same way.
[reply] 1.6362

[ask] Consider next the molecule CC(=O)c1ccccc1OCc1ccc(C(=O)O)cc1 in the same way.
[reply] 17.357

[ask] Consider next the molecule O=C(O)CCCCCCCOc1ccc(O)cc1 [Compound 47, (4-hydroxyphenyl)-8-oxyoctanoic acid] in the same way.
[reply] 1.1
